- assaySystem: T1, human G-protein-coupled receptor family C group 5 member D (GPRC5D) (human, UniProt Q9NZD1 1-345)
- T1 construct: whole, on cells; also called human GPRC5D protein
- T1 sequence (Q9NZD1 whole entry): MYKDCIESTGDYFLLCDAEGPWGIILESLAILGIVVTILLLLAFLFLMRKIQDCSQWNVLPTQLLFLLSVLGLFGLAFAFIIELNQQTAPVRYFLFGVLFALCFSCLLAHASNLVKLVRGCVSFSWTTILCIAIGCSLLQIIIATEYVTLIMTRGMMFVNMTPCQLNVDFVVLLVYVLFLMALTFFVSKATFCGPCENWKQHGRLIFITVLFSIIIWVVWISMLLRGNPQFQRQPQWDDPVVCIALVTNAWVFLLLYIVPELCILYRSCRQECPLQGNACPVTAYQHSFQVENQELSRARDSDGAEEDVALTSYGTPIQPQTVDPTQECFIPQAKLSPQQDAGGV
- protocolText: FACS, CHO-K1/GPRC5D
The entries below come with measured Bottom values attached.
I'd appreciate a reply containing only the number, no unit.

Below: 2 binders and their reported Bottom.
// lookup Bottom for 34-H3L2 (antibody, V domains shown, humanized 34D3H1, VH v3 x VL v2) VH: EVHLVESGGGLVKPGGSLRLSCAASGFTFSSYGMSWVRQTPGKRLEWVATISSGGSYTYYPDSVKGRFTISRDNAKNSLNLQMSSLRAEDTAVYYCARQGGDAMDYWGQGTLVTVSS VL: DIQMTQSPSSLSASVGDRVTITCRASQSINNNLHWYQQKPGKAPKLLIYYASQSISGIPSRFSGSGSGTDFTLTISSVQPEDFATYFCQQSNSRLTFGGGTKVEIK
9040

What Bottom value was documented for this binder, 34-H2L1 (antibody, V domains shown, humanized 34D3H1, VH v2 x VL v1) VH: EVQLVESGGGLVKPGGSLRLSCAASGFTFSSYGMSWVRQTPGKGLEWVATISSGGSYTYYPDSVKGRFTISRDNAKNSLYLQMSSLRAEDTAVYYCARQGGDAMDYWGQGTLVTVSS VL: DIQMTQSPSSLSASVGDRVTITCRASQSINNNLHWYQQKPGKAPKLLIYYASQSISGVPSRFSGSGSGTDFTLTISSLQPEDFATYYCQQSNSRLTFGGGTKVEIK ?
7850

Consider the additional binder presented here.
Consider the binder shown here: 34-H2L3 (antibody, V domains shown, humanized 34D3H1, VH v2 x VL v3) VH: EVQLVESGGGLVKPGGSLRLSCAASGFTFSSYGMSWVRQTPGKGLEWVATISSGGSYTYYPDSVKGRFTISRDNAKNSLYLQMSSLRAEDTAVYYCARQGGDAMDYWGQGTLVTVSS VL: DIQLTQSPSSLSASVGDRVTITCRASQSINNNLHWYQQKPGKSPKLLIYYASQSISGIPSRFSGSGSGTDFTLTISSVQPEDFATYFCQQSNSRLTFGGGTKLEIK What is its recorded Bottom?
7060
